- tested target: human SGLT1 (hSGLT1) (Homo sapiens, UniProt P13866)
- Construct: Full length human SGLT1 (NP_000334)
- Sequence (P13866 whole entry): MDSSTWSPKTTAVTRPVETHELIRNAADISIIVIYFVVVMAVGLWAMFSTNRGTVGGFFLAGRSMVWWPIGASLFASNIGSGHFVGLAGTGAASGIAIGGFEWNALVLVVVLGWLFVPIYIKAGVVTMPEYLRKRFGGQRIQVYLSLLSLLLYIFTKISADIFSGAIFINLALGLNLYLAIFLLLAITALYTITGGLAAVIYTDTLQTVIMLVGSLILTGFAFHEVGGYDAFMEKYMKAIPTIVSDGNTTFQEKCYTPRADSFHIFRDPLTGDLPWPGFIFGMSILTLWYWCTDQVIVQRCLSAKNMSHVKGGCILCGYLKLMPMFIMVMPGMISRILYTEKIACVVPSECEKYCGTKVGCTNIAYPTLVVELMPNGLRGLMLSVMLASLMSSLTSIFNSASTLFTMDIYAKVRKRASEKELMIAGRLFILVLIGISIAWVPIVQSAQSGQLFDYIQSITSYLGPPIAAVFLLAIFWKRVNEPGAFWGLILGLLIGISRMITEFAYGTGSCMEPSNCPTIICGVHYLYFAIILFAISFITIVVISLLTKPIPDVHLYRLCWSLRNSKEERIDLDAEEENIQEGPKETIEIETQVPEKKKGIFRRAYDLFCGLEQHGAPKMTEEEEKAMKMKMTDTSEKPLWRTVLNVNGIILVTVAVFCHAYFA
- test summary: FLIPR membrane potential assay in CHO cells transiently expressing hSGLT1; mock-transfected cells did not respond
value kind: EC50 (µM)
Write the value in µM as a bare number.

Sure, the documented EC50 for OC[C@H]1OC(O)[C@H](O)[C@@H](O)[C@@H]1O (stereo partly shown) is 452
